Values compiled from patent US11318157B2.

// reported IC50 per item
Biological target: PRMT5-MEP50 enzyme (Homo sapiens, UniProt O14744)
Construct: One virus expresses full length human PRMT5 with Flag-tag at N-terminus; Flag (N); purchased Charles River (Argenta); host or cells: insect cells (Sf9), baculovirus co-infection
Sequence (O14744 whole entry): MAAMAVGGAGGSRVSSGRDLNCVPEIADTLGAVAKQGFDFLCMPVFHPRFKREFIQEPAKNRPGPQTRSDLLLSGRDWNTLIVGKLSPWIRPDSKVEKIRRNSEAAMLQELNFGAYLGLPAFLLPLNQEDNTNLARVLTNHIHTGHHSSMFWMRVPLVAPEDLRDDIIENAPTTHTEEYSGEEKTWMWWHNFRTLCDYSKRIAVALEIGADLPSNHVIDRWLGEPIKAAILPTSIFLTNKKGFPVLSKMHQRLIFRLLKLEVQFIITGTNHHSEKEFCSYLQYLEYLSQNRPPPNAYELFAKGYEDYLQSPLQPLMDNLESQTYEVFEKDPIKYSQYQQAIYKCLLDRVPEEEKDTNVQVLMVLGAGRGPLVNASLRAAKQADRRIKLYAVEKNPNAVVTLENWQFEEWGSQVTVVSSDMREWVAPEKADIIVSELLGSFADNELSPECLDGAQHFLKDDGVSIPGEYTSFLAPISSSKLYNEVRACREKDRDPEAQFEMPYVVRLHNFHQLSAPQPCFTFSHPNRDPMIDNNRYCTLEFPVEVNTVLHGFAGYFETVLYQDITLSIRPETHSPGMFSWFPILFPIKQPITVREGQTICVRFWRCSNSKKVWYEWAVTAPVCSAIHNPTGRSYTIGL
Sequence (Q9BQA1 whole entry partner): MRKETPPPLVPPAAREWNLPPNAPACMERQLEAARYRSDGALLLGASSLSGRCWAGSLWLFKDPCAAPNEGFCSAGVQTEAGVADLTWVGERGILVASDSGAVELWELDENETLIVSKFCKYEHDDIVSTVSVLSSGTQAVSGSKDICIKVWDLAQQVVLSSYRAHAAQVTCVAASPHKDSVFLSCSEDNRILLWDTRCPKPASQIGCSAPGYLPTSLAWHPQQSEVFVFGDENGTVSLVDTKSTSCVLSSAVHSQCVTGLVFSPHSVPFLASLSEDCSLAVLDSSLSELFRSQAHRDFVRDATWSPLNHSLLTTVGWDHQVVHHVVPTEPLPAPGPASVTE
Assay: In vitro assay 1a: high throughput mass spectrometer assay of SAH formation, 10 nM enzyme, 60 min
Format: biochemical
Conditions: averaged values, PRMT5-MEP50, 10 nM enzyme, read-out: pIC50 Assay 1a (converted)
From the text: Experimental Procedures In Vitro Assay (Assay 1a and 1b) PRMT5-MEP50 enzyme was purchased from Charles River (Argenta). The enzyme complex was produced in insect cells (Sf9) infected simultaneously with two baculoviruses. One virus expresses full length human PRMT5 with Flag-tag at N-terminus, the second virus expresses full length MEP50 with His6-TEV cleavage at N-terminus. […]
Measured endpoint: IC50 (nM)

>>> quantitative_readout("Nc1ncnc2c1ccn2[C@@H]1C[C@H](/C=C/c2ccc3cc(Cl)cnc3c2)[C@@H](O)[C@H]1O")
31.6
>>> quantitative_readout("Nc1ccc2ccc(OC[C@H]3O[C@@H](n4ccc5cncnc54)[C@H](O)[C@@H]3O)cc2n1")
0.501
>>> quantitative_readout("CCc1cnc2cc(CC[C@H]3C[C@@H](n4ccc5c(N)ncnc54)[C@H](O)[C@@H]3O)ccc2c1")
3.98
>>> quantitative_readout("CC(Oc1ccc2cccnc2c1)[C@H]1O[C@@H](n2ccc3c(N)ncnc32)[C@H](O)[C@@H]1O (single isomer, unassigned) [Compound 67]")
100
>>> quantitative_readout("Nc1ncnc2c1ccn2[C@@H]1C[C@H](CCc2ccc3ccc(NCC(F)(F)F)nc3c2)[C@@H](O)[C@H]1O")
0.794
>>> quantitative_readout("O[C@@H]1[C@H](O)[C@@H](COc2ccc3ccc(NCc4ccc(Cl)cc4)nc3c2)O[C@H]1n1ccc2cncnc21")
2
>>> quantitative_readout("O[C@@H]1[C@H](O)[C@@H](COc2ccc3ccc(NCC4CC4)nc3c2)O[C@H]1n1ccc2cncnc21")
6.31
>>> quantitative_readout("Nc1ncnc2c1ccn2[C@@H]1C[C@H](OCc2ccc3ncccc3c2)[C@@H](O)[C@H]1O")
3160
>>> quantitative_readout("Nc1ncnc2c1ccn2[C@@H]1O[C@H](COc2ccc3cc(F)cnc3c2)[C@@H](O)[C@H]1O")
39.8
>>> quantitative_readout("Nc1ncnc2c1ccn2[C@@H]1O[C@H](COc2ccc3cc(Cl)cnc3c2)[C@@H](O)[C@H]1O")
12.6
>>> quantitative_readout("COc1ncnc2c1ccn2[C@@H]1O[C@H](CCc2ccc3ccc(NCC4CC4)nc3c2)[C@@H](O)[C@H]1O")
200
